Read-out: Matrix Metallopeptidase 1 (MMP1), MMP1 (gene 4312)
Assay: BSK_hDFCGF_MMP1: BioMAP Diversity Plus: hDFCGF Assay for Matrix Metallopeptidase 1 (MMP1) Biomarker Activity (AID 2283064)
Conditions: primary human foreskin fibroblasts; actives raise or lower the signal
Procedure: BSK_hDFCGF is a cell-based, multiplexed-readout assay that uses foreskin fibroblast, a human skin primary cell, with measurements taken at 24 hours after chemical dosing in a 96-well plate.BSK_hDFCGF_MMP1 is an assay component measured in the BSK_hDFCGF assay. It measures MMP-1 antibody related to regulation of gene expression using ELISA technology.Data from the assay component BSK_hDFCGF_MMP1 was analyzed into 1 assay endpoint. […]
Active and inactive are the calls of the source. The calls were made as follows: active = hit-call score of the fitted dose curve at least 0.9, where 1 is the maximum; inactive = score below 0.9.
Mark one answer only. Choices: active, inactive

Smiles: CCCCCCCCCCCCCCCC[N+](C)(C)CC
Qualitative label: active
--
Smiles: O=Nc1ccc(O)cc1
Qualitative label: inactive
--
Smiles: C/C=C\C/C=C/CCCCCCCCOC(C)=O
Qualitative label: active

### Prompt Give the logged outcome of this assay for the following molecule: "c1ccc(-c2ccccn2)nc1"
### Response inactive

### Prompt Give the logged outcome of this assay for the following molecule: "CCO[Si](C)(OCC)OCC"
### Response inactive

### Prompt Give the logged outcome of this assay for the following molecule: "CC(C)C(=O)C(C)C"
### Response inactive

### Prompt Give the logged outcome of this assay for the following molecule: "N#[N+]c1ccc2c(S(=O)(=O)[O-])cccc2c1O"
### Response inactive
